# assayed.target: human CD3E&G complex (Sino Biological Inc., CT041-H0305H) (human) (UniProt P07766)
# Sequence (P07766 23-126, chain 1 of 2): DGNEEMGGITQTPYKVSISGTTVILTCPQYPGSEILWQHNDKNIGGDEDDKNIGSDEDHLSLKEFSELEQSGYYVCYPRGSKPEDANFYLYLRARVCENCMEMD
# Sequence (P09693 23-116, chain 2 of 2, further chain): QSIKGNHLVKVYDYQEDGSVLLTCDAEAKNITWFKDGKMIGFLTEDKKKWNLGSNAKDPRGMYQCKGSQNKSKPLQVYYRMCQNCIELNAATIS
# method: SPR, antigen on chip
measurement.name: kon (M⁻¹ s⁻¹)

binder="SGN70-sp34.24LH (bispecific antibody, part only; not given: anti-CD70 Fab arm and Fc, not shown: another chain or arm of the molecule; a dimerising Fc or GST; large carriers; small tags and cut ends) scFv: QAVVTQEPSLTVSPGGTVTLTCRSSTGAVTTSNYANWVQQKPGQAPRGLIGGTNKRAPGVPARFSGSLLGDKAALTLLGAQPEDEAEYYCALWYSNLWVFGQGTKLTVLGGGGSGGGGSGGGGSGGGGSEVQLVESGGGLVQPGGSLKLSCAASGFTFNTYAMNWVRQASGKGLEWVGRIRSKYNNYATYYADSVKDRFTISRDDSKSTLYLQMNSLKTEDTAVYYCARHGNFGQSYVSWFAYWGQGTTVTVSS" measurement_name=kon meas_value=150000
binder="SGN70-sp34.24HL (bispecific antibody, part only; not given: anti-CD70 Fab arm and Fc, not shown: another chain or arm of the molecule; a dimerising Fc or GST; large carriers; small tags and cut ends) scFv: EVQLVESGGGLVQPGGSLKLSCAASGFTFNTYAMNWVRQASGKGLEWVGRIRSKYNNYATYYADSVKDRFTISRDDSKSTLYLQMNSLKTEDTAVYYCARHGNFGQSYVSWFAYWGQGTTVTVSSGGGGSGGGGSGGGGSGGGGSQAVVTQEPSLTVSPGGTVTLTCRSSTGAVTTSNYANWVQQKPGQAPRGLIGGTNKRAPGVPARFSGSLLGDKAALTLLGAQPEDEAEYYCALWYSNLWVFGQGTKLTVL" measurement_name=kon meas_value=265000
